- test: Cytotoxicity against human A549 cells assessed as cell viability at 64 ug/ml incubated for 24 hrs by MTT assay relative to control
- Assay type: cell-based
- condition_parameters: read-out: Activity
quantity: viability at 24 h, 64 ug/ml (%)
Report the figure in % without appending any unit label.

Q: Need viability at 24 h, 64 ug/ml, item Nc1ccc(S(=O)(=O)Nc2nccc(-n3ccc4ccccc43)n2)cc1
Result: 70

====

- System: Staphylococcus aureus
- test: Antibacterial activity against Staphylococcus aureus ATCC 29213 by two fold serial microbroth dilution method
- Assay type: functional
Label 1 when MIC < 100 µg/mL; otherwise 0.

Known results for compounds:
{"chemical_string": "Nc1ccc(S(=O)(=O)Nc2nccc(-n3ccc4cc(Br)ccc43)n2)cc1", "tested_system": "Staphylococcus aureus", "class": 1}
{"chemical_string": "Nc1ccc(S(=O)(=O)Nc2nccc(-n3ccc4ccccc43)n2)cc1", "tested_system": "Staphylococcus aureus", "class": 1}
{"chemical_string": "Nc1ccc(S(=O)(=O)Nc2nccc(-n3ccnc3)n2)cc1", "tested_system": "Staphylococcus aureus", "class": 0}
{"chemical_string": "Nc1ccc(S(=O)(=O)Nc2nccc(-n3cncn3)n2)cc1", "tested_system": "Staphylococcus aureus", "class": 1}
{"chemical_string": "Cc1nccn1-c1ccnc(NS(=O)(=O)c2ccc(N)cc2)n1", "tested_system": "Staphylococcus aureus", "class": 0}
{"chemical_string": "Cc1ccc2c(ccn2-c2ccnc(NS(=O)(=O)c3ccc(N)cc3)n2)c1", "tested_system": "Staphylococcus aureus", "class": 1}
{"chemical_string": "Cc1ncc([N+](=O)[O-])n1-c1ccnc(NS(=O)(=O)c2ccc(N)cc2)n1", "tested_system": "Staphylococcus aureus", "class": 0}
{"chemical_string": "Nc1ccc(S(=O)(=O)Nc2nccc(-n3cnc4ccccc43)n2)cc1", "tested_system": "Staphylococcus aureus", "class": 0}
{"chemical_string": "Cc1cc2ncn(-c3ccnc(NS(=O)(=O)c4ccc(N)cc4)n3)c2cc1C", "tested_system": "Staphylococcus aureus", "class": 0}

Consider the additional compound presented here.
Q: Lab note: MIC threshold 100 µg/mL. Does this compound come in strictly under it? Nc1ccc(S(=O)(=O)Nc2nccc(-n3ccc4cc([N+](=O)[O-])ccc43)n2)cc1
Result: 1
